# Tested on: PC-3
# Protocol Notes: Antiproliferative activity against human PC-3 cells assessed as cell viability incubated for 72 hrs by MTT assay
# Assay type: functional, cell-based
# Test Context: PC-3, 72 h
Binary label based on IC50 with cut-off 3000 nM: below gives met, not below gives not met.

[in] Could you please tell me whether IC50 recorded for COc1ccc(N(C)c2nc(/C=C/c3ccccc3)nc3ccccc23)cc1OC is less than 3000 nM?
[out] met

[in] Try this compound too: COc1ccc(/C=C/c2nc(N(C)c3ccc(OC)cc3)c3ccccc3n2)cc1
[out] met

[in] Try this compound too: COc1ccc(N(C)c2nc(/C=C/c3cccc(OC)c3)nc3ccccc23)cc1
[out] met

[in] Try this compound too: COc1ccc(N(C)c2nc(/C=C/c3ccc(OC)c(OC)c3OC)nc3ccccc23)cc1
[out] met

[in] Try this compound too: CN(c1ccc2occc2c1)c1nc(/C=C/c2ccccc2)nc2ccccc12
[out] not met

---

# Tested on: MCF7
# Protocol Notes: Antiproliferative activity against human MCF7 cells assessed as cell viability incubated for 72 hrs by MTT assay
# Assay type: functional, cell-based
# Test Context: MCF7, 72 h
Property Name: pIC50
Scale: pIC50 equals -log10([C]), with [C] in mol/L.

[in] Look at this compound and give its reported pIC50. COc1ccc(N(C)c2nc(/C=C/c3cccc(OC)c3)nc3cccc(F)c23)cc1
[out] 6.34

[in] Try this compound too: COc1ccc(N(C)c2nc(/C=C/c3cccc(Cl)c3)nc3ccccc23)cc1
[out] 5.97

[in] Try this compound too: COc1ccc(N(C)c2nc(/C=C/c3cccc(F)c3)nc3ccc(F)cc23)cc1
[out] 6.47

---

# System: PC-3
# Protocol Notes: Antiproliferative activity against human PC-3 cells assessed as cell viability incubated for 72 hrs by MTT assay
# Assay type: functional, cell-based
# Test Context: PC-3, 72 h
pIC50: −log10 of the molar value.
Record Y whenever pIC50 is at 6 or higher; record N when lower.

[in] Determine whether this molecule has pIC50 no lower than 6: COc1ccc(N(C)c2nc(/C=C/c3cccc(OC)c3)nc3ccc(F)cc23)cc1
[out] Y

[in] Try this molecule too: COc1ccc(N(C)c2nc(/C=C/c3cccc(Cl)c3Cl)nc3ccccc23)cc1
[out] N

[in] Try this molecule too: COc1ccc(N(C)c2nc(/C=C/c3cccc(F)c3)nc3ccc(F)cc23)cc1
[out] Y

[in] Try this molecule too: COc1ccc(OC)c(N(C)c2nc(/C=C/c3ccccc3)nc3ccccc23)c1
[out] N

[in] Try this molecule too: COc1ccc(N(C)c2nc(/C=C/c3ccc([N+](=O)[O-])cc3)nc3ccccc23)cc1
[out] N

[in] Try this molecule too: COc1ccc(N(C)c2nc(/C=C/c3cccc(Cl)c3)nc3ccccc23)cc1
[out] N

[in] Try this molecule too: CN(c1ccc(C(F)(F)F)cc1)c1nc(/C=C/c2ccccc2)nc2ccccc12
[out] N

[in] Try this molecule too: COc1ccc(N(C)c2nc(/C=C/c3cccc([N+](=O)[O-])c3)nc3ccccc23)cc1
[out] Y

[in] Try this molecule too: CC(=O)O[C@H]1C(=O)[C@@]2(C)[C@H]([C@H](OC(=O)c3ccccc3)[C@]3(O)C[C@H](OC(=O)[C@H](O)[C@@H](NC(=O)c4ccccc4)c4ccccc4)C(C)=C1C3(C)C)[C@]1(OC(C)=O)CO[C@@H]1C[C@@H]2O
[out] Y

[in] Try this molecule too: COc1ccc(N(C)c2nc(/C=C/c3cccc(F)c3)nc3cccnc23)cc1
[out] Y

[in] Try this molecule too: O=c1[nH]cc(F)c(=O)[nH]1
[out] N
